- Measurement notes: amyloid nucleation score (Sup35N fusion, yeast selection) (log enrichment); library NNK2; higher = more nucleation; inactive = no reads after selection;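 also: zero at mode of non-aggregating sequences after 7 days selection at 30°C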
Hi, to clarify the labels: 1.0 covers amyloid nucleation score from -0.2 upward, 0.0 covers anything below -0.2.

> print(dat)
               substance  class.label
 1  GGISNVCLSYVRFQEFVFNV          1.0
 2             CYTDTMARK          1.0
 3                MEGVAK          1.0
 4               SPTNIRP          1.0
 5  TLFSLREGLFNGIWTVSLSW          0.0
 6  DRWMTGMDAVYLHRRGPLFF          1.0
 7            CCFGVQVEGT          0.0
 8  ILSQPEEGLGGTKSSFCVVF          0.0
 9            IKVYESYVRT          0.0
10      HINMIGWEFSVGYGWQ          1.0
11  KCIYDFHHRKSSVRDSLSFH          0.0
12        KDAPEECNYVQFKA          1.0
13             NENKILSDL          0.0
14  TRGKRVPPDVLSSPKRIANV          1.0

###

- Measurement notes: amyloid nucleation score (Sup35N fusion, yeast selection) (log enrichment); library NNK2; higher = more nucleation; inactive = no reads after selection
Measurement type: amyloid nucleation score

> print(dat)
               substance  observed.measurement
 1  PTCGNSPMVRWCSAETFVWG                  3.04
 2  NIFRESEAERRALNKFYMSF                  0.04
 3             RLFLSSNST                 -1.49
 4       FKSQIDSECMFYLLG                -0.018
 5  MLYVVCFCILVFLFHTNRMR                -0.674
 6            YQLRCKCSTF                -0.757
 7  HDTLIMFTYKVVVLLASERF                -0.549
 8  SFFWPPHLKRVLFLQLRTIC                 0.777
 9  LRSWSLAMRGDIMGTVRWLR                 0.413
10          MDLMGCLYYPDT                  1.05
11              QTNGGEGQ                 0.705
12              TIWGYARC                  2.67
13               HYVVFVF                  6.37
14  VRCRDENHVVELSGGEVPDS                 0.066
15  LASPGTRFSFGSLVACGVVQ                -0.178
16              LFNSAVLK                -0.092
17  ILIVVMCFHSNNKSRDNRIY                 -1.46
18  FEWWTSMGGGECVQRNNSVA                 0.697
19  YCMMPATGICVLDVSVCRDT                  8.29
20    DNCFAAFSFRRGVAYVDL                 -0.52
21   VLVSVVRCDVVAAVRCVQM                  3.56
22    CISSKHISVGVTDNLVVV                 0.436
23  DKMYVIIVGPLAAMENVNNT                 0.024
24                KLKRHL                  -0.3
25  NQTPLMLACSADFHSISSWT                 0.365
26       WRAIALLEARTGSRQ                  1.08
27         NYGSSRLAPVHNT                  3.17
28  FRRQSPNMQPSCWTDHGLRG                -0.105
29  LMINGRLRDITMDATVYCNS                 0.764
30  EACRLYHRVVKAFGEARCSV                 0.518
31  MFSYTVSVLDLIYKSIWECE                -0.941
32  DFYSNEWRGDEICVQLLELV                 0.393
33  GWRCSNPPASIKWCATLYSV                  2.08
34  LNWGSNIQAGVHTSRPWGSY                 0.248
